Source listed as ChEMBL document CHEMBL5316379.

Molecular target: von Hippel-Lindau disease tumor suppressor/Bcl-2-like protein 1 (Homo sapiens, UniProt P40337+Q07817)
Sequence (Q07817 whole entry): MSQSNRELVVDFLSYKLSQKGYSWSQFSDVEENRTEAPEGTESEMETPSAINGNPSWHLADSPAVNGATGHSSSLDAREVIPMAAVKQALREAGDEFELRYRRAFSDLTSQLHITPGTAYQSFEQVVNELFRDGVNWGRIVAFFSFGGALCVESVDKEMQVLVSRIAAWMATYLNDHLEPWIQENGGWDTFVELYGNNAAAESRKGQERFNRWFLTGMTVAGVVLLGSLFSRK
Sequence (P40337 whole entry): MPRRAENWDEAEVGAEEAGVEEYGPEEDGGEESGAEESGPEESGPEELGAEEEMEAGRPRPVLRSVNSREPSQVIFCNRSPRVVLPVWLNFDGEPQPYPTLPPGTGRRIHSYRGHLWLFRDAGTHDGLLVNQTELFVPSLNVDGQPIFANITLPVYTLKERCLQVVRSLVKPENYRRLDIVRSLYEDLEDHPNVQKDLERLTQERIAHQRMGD
Assay: Protac activity at VHL/BCL-xl in human NCI-H1650 cells assessed as induction of BCL-xl degradation by Nano-Glo HiBiT assay
OBSERVATION TYPE: EC50 (nM)
Give bare numbers, in nM.

EC50 reading for Cc1ncsc1-c1ccc([C@H](C)NC(=O)[C@@H]2C[C@@H](O)CN2C(=O)[C@@H](NC(=O)CCCCCCCN(C)CCOC23C[C@@]4(C)C[C@@](C)(C2)C[C@@](Cn2ncc(-c5ccc(N6CCCc7c6nnc(Nc6nc8ccccc8s6)c7C)nc5C(=O)O)c2C)(C3)C4)C(C)(C)C)cc1 : 3

###

Molecular target: von Hippel-Lindau disease tumor suppressor/Bcl-2-like protein 1 (Homo sapiens, UniProt P40337+Q07817)
Assay: Protac activity at VHL/BCL-xl in human NCI-H1650 cells assessed as induction of BCL-xl degradation by Nano-Glo HiBiT assay
Hi there, I'd appreciate the recorded pEC50 for every entry that follows.
Numbers only, as −log10 of the molar value.

SMILES REPR: Cc1ncsc1-c1ccc([C@H](C)NC(=O)[C@@H]2C[C@@H](O)CN2C(=O)[C@@H](NC(=O)CCCCCCCCCCCN(C)CCOC23C[C@@]4(C)C[C@@](C)(C2)C[C@@](Cn2ncc(-c5ccc(N6CCCc7c6nnc(Nc6nc8ccccc8s6)c7C)nc5C(=O)O)c2C)(C3)C4)C(C)(C)C)cc1
OBSERVATION TYPE: pEC50
EXPERIMENTAL VALUE: 9.00

Working through the 4 compounds below one at a time, give pEC50 for each.
1. Cc1ncsc1-c1ccc([C@H](C)NC(=O)[C@@H]2C[C@@H](O)CN2C(=O)[C@@H](NC(=O)CCCCCCCCCCCCCCN(C)CCOC23C[C@@]4(C)C[C@@](C)(C2)C[C@@](Cn2ncc(-c5ccc(N6CCCc7c6nnc(Nc6nc8ccccc8s6)c7C)nc5C(=O)O)c2C)(C3)C4)C(C)(C)C)cc1
2. Cc1ncsc1-c1ccc([C@H](C)NC(=O)[C@@H]2C[C@@H](O)CN2C(=O)[C@@H](NC(=O)CCCCCCCCN(C)CCOC23C[C@@]4(C)C[C@@](C)(C2)C[C@@](Cn2ncc(-c5ccc(N6CCCc7c6nnc(Nc6nc8ccccc8s6)c7C)nc5C(=O)O)c2C)(C3)C4)C(C)(C)C)cc1
3. Cc1ncsc1-c1ccc([C@H](C)NC(=O)[C@@H]2C[C@@H](O)CN2C(=O)[C@@H](NC(=O)CCCCCCN(C)CCOC23C[C@@]4(C)C[C@@](C)(C2)C[C@@](Cn2ncc(-c5ccc(N6CCCc7c6nnc(Nc6nc8ccccc8s6)c7C)nc5C(=O)O)c2C)(C3)C4)C(C)(C)C)cc1
4. Cc1ncsc1-c1ccc([C@H](C)NC(=O)[C@@H]2C[C@@H](O)CN2C(=O)[C@@H](NC(=O)CCCCCCCCCCCCCCCN(C)CCOC23C[C@@]4(C)C[C@@](C)(C2)C[C@@](Cn2ncc(-c5ccc(N6CCCc7c6nnc(Nc6nc8ccccc8s6)c7C)nc5C(=O)O)c2C)(C3)C4)C(C)(C)C)cc1

Reply:
1. 9.00
2. 8.70
3. 8.52
4. 9.00
